Values from patent US20250382372A1

STUDY TARGET: Cynomolgus monkey CD1a expressed on HEK-293 cells (Cynomolgus monkey)
MEASUREMENT PROTOCOL: flow, HEK-293, Ab 10 µg/ml
REPORTED PROPERTY: Fluorescence Intensity Geomean (normalized to background) (fold over background)
Would you mind answering with just the numeric figure?

// recorded Fluorescence Intensity Geomean (normalized to background) (fold over background) for 116 (VR12117) (antibody, V domains shown, also called OX116) VH: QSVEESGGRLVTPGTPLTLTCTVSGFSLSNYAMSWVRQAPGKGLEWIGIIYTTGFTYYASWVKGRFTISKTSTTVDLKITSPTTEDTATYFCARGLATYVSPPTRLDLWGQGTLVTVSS VL: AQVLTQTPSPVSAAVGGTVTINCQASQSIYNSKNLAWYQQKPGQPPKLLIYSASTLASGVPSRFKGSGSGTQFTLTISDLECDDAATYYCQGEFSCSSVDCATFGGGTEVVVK : 1.7
